FYI, the data here is from PubChem BioAssay AID248.

tested on: L1210 leukemia ip in BDF1 mice, survival T/C; assay: NCI In Vivo Anticancer Drug Screen. Data for tumor model L1210 Leukemia (intraperitoneal) in B6D2F1 (BDF1) mice; details: endpoint: mean survival time; dose: 6.25 mg/kg/injection; schedule: Q01DX009 (ip); vehicle: Klucel (hydroxypropylcellulose) (HPC)
Inconclusive results and toxic doses are left out. No stated cut-off is given here; in the data, active means T/C of 150% or more; inactive means T/C below 125%.
Please state which outcome applies, choosing from class 1 = active, class 0 = inactive

| compound | label |
| --- | --- |
| Nc1ncnc(NC2CCCCC2)n1 | class 0 |
| C=C1CC(c2ccc(S(=O)(=O)N3CCOCC3)cc2)OC1=O (centres undefined) | class 0 |

[ask] So what was the verdict on CC(=O)Nc1ccc2c(Nc3ccc(NS(C)(=O)=O)cc3)c3ccccc3nc2c1 in this test?
[reply] class 1

[ask] So what was the verdict on Cc1ccccc1N1C(N)=NC(N)=NC1(C)C in this test?
[reply] class 0
